Tested on: Wolbachia pipientis
TEST_METHOD_NOTES: Anti-Wolbachia Cell-Based Screen
Assay type: functional
Set-up: scale not given: in the data most compounds retested in dose-response had high values
MEASUREMENT_CONDITIONS: 5 µM
Among all 48,000 compounds or so, about 13,000 (27%) showed an effect of 50% or more. The list shows a part of the results.
METRIC_NAME: Percent Effect (%)
Numbers only, in %.

INSERT INTO assay_data (compound, result_value) VALUES
  ('CCN1C(=O)CCC12CCN(S(=O)(=O)c1ccccc1)CC2', -5.531),
  ('COCCN1CCO[C@@H]2CN(C(=O)NCc3ccccc3)CC[C@@H]2C1.O=C(O)C(F)(F)F', -7.267),
  ('CC(C)n1[nH]c(=O)c2c1NC(=O)CC2C1CCCCC1 (stereo not given)', 0.5792),
  ('COc1ccccc1OCC(=O)N1C[C@@H]2CN(C)CCO[C@@H]2C1.O=C(O)C(F)(F)F', -10.13),
  ('NC(=O)c1c[nH]nc1NC(=O)c1cccc(Cl)c1', 101.4);

Report Percent Effect for each item below.
1. N#Cc1cn(C2CC2)c(=O)n(CC(O)c2ccc(OC(F)F)cc2)c1=O (stereo not given)
2. CC(C)N1C[C@@H]2CN(C(=O)NCc3ccccc3)CCC[C@]2(C(=O)O)C1.O=C(O)C(F)(F)F
3. COc1ccc2cc(C3CN(C(=O)C4CCOCC4)CCO3)ccc2c1 (stereo not given)
4. CC(C)N1CCO[C@@H]2CN(C(=O)NCc3ccccc3)CC[C@@H]2C1.O=C(O)C(F)(F)F

Outgoing:
1. -10.28
2. -4.508
3. -17.44
4. 99.72

====

Tested on: Wolbachia pipientis
TEST_METHOD_NOTES: Anti-Wolbachia Cell-Based Screen
Type: functional
Parameters: scale not given: in the data most compounds retested in dose-response had high values
MEASUREMENT_CONDITIONS: 5 µM
In all, about 48,000 compounds went through this assay and about 13,000 (27%) showed an effect of 50% or more. The list shows a part of the results.
METRIC_NAME: Percent Effect (%)
Numbers only, in %.

Field: example entries. Status: answers known.
INSERT INTO assay_data (compound, assay_target, metric_name, result_value) VALUES
  ('CN1CCN(Cc2cccnc2)C2(CCN(C3CCOCC3)C2)C1=O.O=C(O)C(F)(F)F.O=C(O)C(F)(F)F.O=C(O)C(F)(F)F (stereo unspecified)', 'Wolbachia pipientis', 'Percent Effect', 4.033),
  ('CCN1C(=O)CC[C@]12CC[C@@H](NC(=O)NCc1cccnc1)CC2.O=C(O)C(F)(F)F', 'Wolbachia pipientis', 'Percent Effect', 126.1),
  ('CC(C)C(=O)NCc1cc(Br)ccc1F', 'Wolbachia pipientis', 'Percent Effect', -9.372),
  ('Cc1nnc2n1CCN(Cc1ncc(-c3ccc(Cl)cc3)o1)C2', 'Wolbachia pipientis', 'Percent Effect', -13.18),
  ('Cc1ccc(S(=O)(=O)NCC2(O)CCOc3ccccc32)s1 (stereo unspecified)', 'Wolbachia pipientis', 'Percent Effect', 0.721);

Report Percent Effect for each item below.
1. Br.Cn1cc(CN2CCC(c3cc(COc4cccc(Cl)c4)[nH]n3)C2)cn1 (stereo unspecified)
2. CN(C)CC(=O)N1CCc2ncnc(-c3cncnc3)c2CC1.O=C(O)C(F)(F)F
3. Cc1ccc(CN2C(=O)CC[C@]23CC[C@@H](NC2CCOC2)CC3)cc1.O=C(O)C(F)(F)F (stereo partly specified)
4. CC(NC(=O)c1ccc(C(N)=O)cc1)c1cccc(N2CCOC2=O)c1 (stereo unspecified)
5. CCN1C(=O)CC[C@]12CC[C@@H](NC(=O)c1cc(C)on1)CC2
6. O=C(NCc1cccnc1)C1CC(=O)N(CC2CC2)C1 (stereo unspecified)

Outgoing:
1. 108.1
2. 2.289
3. -29.75
4. 7.135
5. -41.62
6. 7.078

The reported numbers originate from ChEMBL document CHEMBL3988442.
